Quick list: Vd per entry.
Assay: Volume of distribution at steady state in Sprague-Dawley rat at 1 mg/kg
Format: ADME, organism-based
Parameters: dose 1 mg/kg
Conditions: in vivo, read-out: Vdss
Provide only the numeric value, understood in L/kg.

>>> df
                                        mol  outcome_measure  measured_number
0  O=C(N[C@@H](Cc1ccc(N2CCN(c3ccccc3)CC2)cc1)C(=O)O)c1c(Cl)cccc1Cl               Vd            0.754

Proceeding to the next compound to report its Vd.
Reported Vd ( O=C(N[C@@H](Cc1ccc(N2CCN(c3ccccc3)CC2)cc1)C(=O)O)c1c(Cl)cncc1Cl ) = 6.23

Cited source for all entries: ChEMBL document CHEMBL1140828
